Recorded viability, T/C by entry
System: 855422-203-R-J1-PDC complex spheroids, viability
Test description: Anticancer human tumor 855422-203-R-J1-PDC patient-derived bladder carcinoma cell line growth inhibition [CLK]
Measurement parameters: second compound 3.16 µM; first compound 0.0316 µM; hits give low values

{"columns": ["Compound", "viability, T/C [%]"],
 "data": [
  ["COc1c(OCCCN2CCOCC2)ccc2c3n(c(=NC(=O)c4cnc(N)nc4)nc12)CCN3 + CNC(=O)c1ccc(Nc2nc(OC3CCCC3)c3c(-c4ccc5nc(C)oc5c4)c[nH]c3n2)c(OC)c1", 10.1],
  ["COc1ccc([C@@H](O)c2cc(-c3ncnc4cc(N5CCOCC5)ccc34)c(F)cc2Cl)nn1 + CNC(=O)c1ccc(Nc2nc(OC3CCCC3)c3c(-c4ccc5nc(C)oc5c4)c[nH]c3n2)c(OC)c1", 17.7],
  ["COC1C=CCC(C)C(C)S(=O)(=O)NC(=O)c2ccc3c(c2)N(CC2CCC21)CC1(CCCc2cc(Cl)ccc21)CO3 (stereo not given) + CN1CCN(c2cc(C(=O)Nc3cc4cc(-c5cnn(C)c5)ccc4cn3)ccn2)CC1", 0.29],
  ["CCc1c2c(nc3ccc(O)cc13)-c1cc3c(c(=O)n1C2)COC(=O)[C@]3(O)CC + CNC(=O)c1ccc(Nc2nc(OC3CCCC3)c3c(-c4ccc5nc(C)oc5c4)c[nH]c3n2)c(OC)c1", 7.84],
  ["C=C(F)C(=O)N1CCN(c2nc(OCC3CCCN3C)nc3c2CCN(c2cccc4cccc(Cl)c24)C3)CC1CC#N (stereo not given) + CN1CCN(c2cc(C(=O)Nc3cc4cc(-c5cnn(C)c5)ccc4cn3)ccn2)CC1", 0.68],
  ["CC(CO)NC(=O)c1cc(-c2ccc(Cl)cc2)nn(-c2cnn(C)c2)c1=O (stereo not given) + CNC(=O)c1ccc(Nc2nc(OC3CCCC3)c3c(-c4ccc5nc(C)oc5c4)c[nH]c3n2)c(OC)c1", 24.3],
  ["CCN1CCN(Cc2ccc(Nc3ncc(F)c(-c4cc(F)c5nc(C)n(C(C)C)c5c4)n3)nc2)CC1 + CNC(=O)c1ccc(Nc2nc(OC3CCCC3)c3c(-c4ccc5nc(C)oc5c4)c[nH]c3n2)c(OC)c1", 19.8],
  ["CCc1c2c(nc3ccc(O)cc13)-c1cc3c(c(=O)n1C2)COC(=O)[C@]3(O)CC + CN1CCN(c2cc(C(=O)Nc3cc4cc(-c5cnn(C)c5)ccc4cn3)ccn2)CC1", 0.44],
  ["O=C(c1cc(Cc2n[nH]c(=O)c3ccccc23)ccc1F)N1CCN(C(=O)C2CC2)CC1 + CNC(=O)c1ccc(Nc2nc(OC3CCCC3)c3c(-c4ccc5nc(C)oc5c4)c[nH]c3n2)c(OC)c1", 23.3],
  ["CC(=O)O[C@H]1C(=O)[C@@]2(C)[C@H]([C@H](OC(=O)c3ccccc3)[C@]3(O)C[C@H](OC(=O)[C@H](O)[C@@H](NC(=O)c4ccccc4)c4ccccc4)C(C)=C1C3(C)C)[C@]1(OC(C)=O)CO[C@@H]1C[C@@H]2O + CN1CCN(c2cc(C(=O)Nc3cc4cc(-c5cnn(C)c5)ccc4cn3)ccn2)CC1", 0.45],
  ["CC(CO)NC(=O)c1cc(-c2ccc(Cl)cc2)nn(-c2cnn(C)c2)c1=O (stereo not given) + CN1CCN(c2cc(C(=O)Nc3cc4cc(-c5cnn(C)c5)ccc4cn3)ccn2)CC1", 2.96],
  ["O=C(c1cc(Cc2n[nH]c(=O)c3ccccc23)ccc1F)N1CCN(C(=O)C2CC2)CC1 + CN1CCN(c2cc(C(=O)Nc3cc4cc(-c5cnn(C)c5)ccc4cn3)ccn2)CC1", 0.76],
  ["COc1c(OCCCN2CCOCC2)ccc2c3n(c(=NC(=O)c4cnc(N)nc4)nc12)CCN3 + CN1CCN(c2cc(C(=O)Nc3cc4cc(-c5cnn(C)c5)ccc4cn3)ccn2)CC1", 0.6],
  ["C#Cc1c(F)ccc2cc(O)cc(-c3ncc4c(N5CC6CCC(C5)N6)nc(OCC56CCCN5CC(F)C6)nc4c3F)c12 (stereo not given) + CN1CCN(c2cc(C(=O)Nc3cc4cc(-c5cnn(C)c5)ccc4cn3)ccn2)CC1", 0.39],
  ["C=CC(=O)N1CCN(c2nc(=O)n(-c3c(C)ccnc3C(C)C)c3nc(-c4c(O)cccc4F)c(F)cc23)C(C)C1 (stereo not given) + CN1CCN(c2cc(C(=O)Nc3cc4cc(-c5cnn(C)c5)ccc4cn3)ccn2)CC1", 0.88],
  ["CCN1CCN(Cc2ccc(Nc3ncc(F)c(-c4cc(F)c5nc(C)n(C(C)C)c5c4)n3)nc2)CC1 + CN1CCN(c2cc(C(=O)Nc3cc4cc(-c5cnn(C)c5)ccc4cn3)ccn2)CC1", 0.95],
  ["Cn1ncnc1[C@H]1c2n[nH]c(=O)c3cc(F)cc(c23)N[C@@H]1c1ccc(F)cc1 + CNC(=O)c1ccc(Nc2nc(OC3CCCC3)c3c(-c4ccc5nc(C)oc5c4)c[nH]c3n2)c(OC)c1", 21.7],
  ["CC1COCCN1c1cc(C2(S(C)(=N)=O)CC2)nc(-c2ccnc3[nH]ccc23)n1 (stereo not given) + CNC(=O)c1ccc(Nc2nc(OC3CCCC3)c3c(-c4ccc5nc(C)oc5c4)c[nH]c3n2)c(OC)c1", 22.9],
  ["COc1ccc([C@@H](O)c2cc(-c3ncnc4cc(N5CCOCC5)ccc34)c(F)cc2Cl)nn1 + CN1CCN(c2cc(C(=O)Nc3cc4cc(-c5cnn(C)c5)ccc4cn3)ccn2)CC1", 1.7],
  ["COC1C=CCC(C)C(C)S(=O)(=O)NC(=O)c2ccc3c(c2)N(CC2CCC21)CC1(CCCc2cc(Cl)ccc21)CO3 (stereo not given) + CNC(=O)c1ccc(Nc2nc(OC3CCCC3)c3c(-c4ccc5nc(C)oc5c4)c[nH]c3n2)c(OC)c1", 15.8]
]}

* * *

Each item that follows carries a reported viability, T/C.
System: 855422-203-R-J1-PDC complex spheroids, viability
Test description: Anticancer human tumor 855422-203-R-J1-PDC cell line growth inhibition [CLK];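 further: spheroids exposed to drugs for seven days before readout; 100% = DMSO vehicle control wells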
Measurement parameters: second compound 10 µM; first compound 0.0949 µM; hits give low values

{"columns": ["Compound", "Reading unit", "viability, T/C"],
 "data": [
  ["C=CC(=O)Nc1cc(Nc2nccc(-c3cn(C)c4ccccc34)n2)c(OC)cc1N(C)CCN(C)C + CN1CCN(c2cc(C(=O)Nc3cc4cc(-c5cnn(C)c5)ccc4cn3)ccn2)CC1", "%", 0.58],
  ["C=CC(=O)Nc1cc(Nc2nccc(-c3cn(C)c4ccccc34)n2)c(OC)cc1N(C)CCN(C)C + CNC(=O)c1ccc(Nc2nc(OC3CCCC3)c3c(-c4ccc5nc(C)oc5c4)c[nH]c3n2)c(OC)c1", "%", 23.3],
  ["NC(=O)C(=Cn1cnc(-c2cc(C(F)(F)F)cc(C(F)(F)F)c2)n1)c1cncnc1 + CNC(=O)c1ccc(Nc2nc(OC3CCCC3)c3c(-c4ccc5nc(C)oc5c4)c[nH]c3n2)c(OC)c1", "%", 7.07]
]}

* * *

Tested on: 855422-203-R-J1-PDC complex spheroids, viability
Test description: Anticancer human tumor 855422-203-R-J1-PDC cell line growth inhibition [CLK];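 further: spheroids exposed to drugs for seven days before readout; 100% = DMSO vehicle control wells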
Measurement parameters: second compound 3.16 µM; first compound 0.00316 µM; hits give low values
From the text: A high-throughput screen of multi-cell type tumor spheroids was designed to identify active combinations of […] and targeted small molecules. Complex spheroids include a stromal component modeled by human endothelial cells (HUVEC) and fibroblasts modeled by human mesenchymal stem cells (MSCs). […] Compounds. […] If the clinical Cmax for an agent had not been determined, the highest concentration tested was 10 microM. […]

{"columns": ["Compound", "Target", "viability, T/C (%)"],
 "data": [
  ["CCN1CCN(Cc2ccc(Nc3ncc(F)c(-c4cc(F)c5nc(C)n(C(C)C)c5c4)n3)nc2)CC1 + CNC(=O)c1ccc(Nc2nc(OC3CCCC3)c3c(-c4ccc5nc(C)oc5c4)c[nH]c3n2)c(OC)c1", "855422-203-R-J1-PDC complex spheroids, viability", 18.2],
  ["COc1c(OCCCN2CCOCC2)ccc2c3n(c(=NC(=O)c4cnc(N)nc4)nc12)CCN3 + CN1CCN(c2cc(C(=O)Nc3cc4cc(-c5cnn(C)c5)ccc4cn3)ccn2)CC1", "855422-203-R-J1-PDC complex spheroids, viability", 0.37],
  ["CCc1c2c(nc3ccc(O)cc13)-c1cc3c(c(=O)n1C2)COC(=O)[C@]3(O)CC + CNC(=O)c1ccc(Nc2nc(OC3CCCC3)c3c(-c4ccc5nc(C)oc5c4)c[nH]c3n2)c(OC)c1", "855422-203-R-J1-PDC complex spheroids, viability", 17.8]
]}

* * *

Tested on: 855422-203-R-J1-PDC complex spheroids, viability
Test description: Anticancer human tumor 855422-203-R-J1-PDC cell line growth inhibition [CLK];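 further: spheroids exposed to drugs for seven days before readout; 100% = DMSO vehicle control wells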
Measurement parameters: second compound 10 µM; first compound 0.3 µM; hits give low values
Measured endpoint: viability, T/C (%)

{"columns": ["Compound", "Target", "Reading unit", "Quantitative result"],
 "data": [
  ["NC(=O)C(=Cn1cnc(-c2cc(C(F)(F)F)cc(C(F)(F)F)c2)n1)c1cncnc1 + CN1CCN(c2cc(C(=O)Nc3cc4cc(-c5cnn(C)c5)ccc4cn3)ccn2)CC1", "855422-203-R-J1-PDC complex spheroids, viability", "%", 0.23],
  ["CC(C)CC(NC(=O)C(Cc1ccccc1)NC(=O)c1cnccn1)B(O)O (stereo not drawn) + CN1CCN(c2cc(C(=O)Nc3cc4cc(-c5cnn(C)c5)ccc4cn3)ccn2)CC1", "855422-203-R-J1-PDC complex spheroids, viability", "%", 0.32],
  ["C=CC(=O)Nc1cc(Nc2nccc(-c3cn(C)c4ccccc34)n2)c(OC)cc1N(C)CCN(C)C + CNC(=O)c1ccc(Nc2nc(OC3CCCC3)c3c(-c4ccc5nc(C)oc5c4)c[nH]c3n2)c(OC)c1", "855422-203-R-J1-PDC complex spheroids, viability", "%", 21.9]
]}
